- System: various cell lines of different tumor origins
- Assay procedure: Inhibition of cell proliferation, InCell Analyzer assay
- Type: cell-based
- Particulars: Homo sapiens, SW 1116, SW1116, Colon
Endpoint: IC50

// sample `COc1cc(N2CCC(N3CCCCC3)CC2)ccc1Nc1nccc(-c2c(-c3cccc(C(=O)Nc4c(F)cccc4F)c3)nc3ccccn23)n1` , its IC50 was > 5 µM

###

- Test system: IR (NIH-3T3 cells over expressing human IGF-1R or IR) (Homo sapiens)
- Assay procedure: IR cellular autophosphorylation (DELFIA)
- Particulars: NIH-3T3 cells over expressing IR, insulin stimulated
Endpoint: IC50

Here's what some known entries look like.
[[record]]
molecule = "CCCOc1cc(N2CCC(N3CCCCC3)CC2)ccc1Nc1nccc(-c2c(-c3cccc(C(=O)Nc4c(F)cccc4F)c3)nc3ccccn23)n1 [Example 33]"
obs_value = "100 to 500 nM"

[[record]]
molecule = "COc1cc(N2CCC(O)CC2)ccc1Nc1nccc(-c2c(-c3cccc(C(=O)Nc4c(F)cccc4F)c3)nc3ccccn23)n1 [Example 73]"
obs_value = "100 to 500 nM"

[[record]]
molecule = "COc1cc(N2CCC(N3CCCCCC3)CC2)ccc1Nc1nccc(-c2c(-c3cccc(C(=O)Nc4c(F)cccc4F)c3)nc3ccccn23)n1 [Example 50]"
obs_value = "< 100 nM"

[[record]]
molecule = "CCOc1ccc(-c2nc3ccccn3c2-c2ccnc(Nc3cc(CC)c(N4CCC(N5CCN(S(C)(=O)=O)CC5)CC4)cc3OC)n2)cc1C(=O)Nc1c(F)cccc1F [Example 206]"
obs_value = "< 100 nM"

[[record]]
molecule = "COc1cc([C@H]2CC[C@H](N3CCN(CCS(C)(=O)=O)CC3)CC2)ccc1Nc1nccc(-c2c(-c3cccc(C(=O)Nc4c(F)cccc4F)c3)nc3ccccn23)n1 [Example 94]"
obs_value = "100 to 500 nM"

[[record]]
molecule = "COc1cc(N2CCC(N3CCN(S(C)(=O)=O)CC3)CC2)c(C)cc1Nc1nccc(-c2c(-c3cccc(C(=O)Nc4c(F)cccc4F)c3)nc3ccccn23)n1 [Example 245]"
obs_value = "< 100 nM"

[[record]]
molecule = "COc1cc(N2CCC(N3CCC(O)CC3)CC2)ccc1Nc1nccc(-c2c(-c3ccc(OC)c(C(=O)Nc4c(F)cccc4F)c3)nc3ccccn23)n1 [Example 81]"
obs_value = "< 100 nM"

[[record]]
molecule = "COc1cc(N2CCN(C3CCN(CCS(C)(=O)=O)CC3)CC2)ccc1Nc1nccc(-c2c(-c3cccc(C(=O)Nc4c(F)cccc4F)c3)nc3ccccn23)n1 [Example 89]"
obs_value = "< 100 nM"


Give me IC50 for each of these molecules, listed below.
1. CCOc1ccc(-c2nc3ccccn3c2-c2ccnc(Nc3ccc(N4CCC(N5CCN(CCS(C)(=O)=O)CC5)CC4)cc3OC)n2)cc1C(=O)Nc1c(F)cccc1F [Example 66]
2. COc1cc(N2CCC(CN3CCN(C)CC3)CC2)ccc1Nc1nccc(-c2c(-c3cccc(C(=O)Nc4c(F)cccc4F)c3)nc3ccccn23)n1 [Example 37]

["< 100 nM", "< 100 nM"]

###

- System: various cell lines of different tumor origins
- Assay procedure: Inhibition of cell proliferation, InCell Analyzer assay
- Assay type: cell-based
- Particulars: Homo sapiens, HPAC, Pancreas
Endpoint: IC50

Lookup result for COc1cc(N2CCC(N3CCCCC3)CC2)ccc1Nc1nccc(-c2c(-c3cccc(C(=O)Nc4c(F)cccc4F)c3)nc3ccccn23)n1 [Example 22] ; measured IC50: < 1 µM

###

- System: various cell lines of different tumor origins
- Assay procedure: Inhibition of cell proliferation, InCell Analyzer assay
- Format: cell-based
- Particulars: Homo sapiens, HMCB, Skin
Endpoint: IC50

# IC50 (molecule: COc1cc(N2CCC(N3CCCCC3)CC2)ccc1Nc1nccc(-c2c(-c3cccc(C(=O)Nc4c(F)cccc4F)c3)nc3ccccn23)n1 [Example 22] ) is 1000 to 5000 nM

###

- System: various cell lines of different tumor origins
- Assay procedure: Inhibition of cell proliferation, InCell Analyzer assay
- Type: cell-based
- Particulars: NCI-H322, NCI-H322, Lung
pIC50: −log10 of the molar value.
Endpoint: pIC50

Short answer for `COc1cc(N2CCC(N3CCCCC3)CC2)ccc1Nc1nccc(-c2c(-c3cccc(C(=O)Nc4c(F)cccc4F)c3)nc3ccccn23)n1` : pIC50 was > 6.00

###

- Test system: human IGF-1R (NIH-3T3 cells over expressing human IGF-1R) (Homo sapiens, UniProt P08069)
- Sequence (P08069 31-1367): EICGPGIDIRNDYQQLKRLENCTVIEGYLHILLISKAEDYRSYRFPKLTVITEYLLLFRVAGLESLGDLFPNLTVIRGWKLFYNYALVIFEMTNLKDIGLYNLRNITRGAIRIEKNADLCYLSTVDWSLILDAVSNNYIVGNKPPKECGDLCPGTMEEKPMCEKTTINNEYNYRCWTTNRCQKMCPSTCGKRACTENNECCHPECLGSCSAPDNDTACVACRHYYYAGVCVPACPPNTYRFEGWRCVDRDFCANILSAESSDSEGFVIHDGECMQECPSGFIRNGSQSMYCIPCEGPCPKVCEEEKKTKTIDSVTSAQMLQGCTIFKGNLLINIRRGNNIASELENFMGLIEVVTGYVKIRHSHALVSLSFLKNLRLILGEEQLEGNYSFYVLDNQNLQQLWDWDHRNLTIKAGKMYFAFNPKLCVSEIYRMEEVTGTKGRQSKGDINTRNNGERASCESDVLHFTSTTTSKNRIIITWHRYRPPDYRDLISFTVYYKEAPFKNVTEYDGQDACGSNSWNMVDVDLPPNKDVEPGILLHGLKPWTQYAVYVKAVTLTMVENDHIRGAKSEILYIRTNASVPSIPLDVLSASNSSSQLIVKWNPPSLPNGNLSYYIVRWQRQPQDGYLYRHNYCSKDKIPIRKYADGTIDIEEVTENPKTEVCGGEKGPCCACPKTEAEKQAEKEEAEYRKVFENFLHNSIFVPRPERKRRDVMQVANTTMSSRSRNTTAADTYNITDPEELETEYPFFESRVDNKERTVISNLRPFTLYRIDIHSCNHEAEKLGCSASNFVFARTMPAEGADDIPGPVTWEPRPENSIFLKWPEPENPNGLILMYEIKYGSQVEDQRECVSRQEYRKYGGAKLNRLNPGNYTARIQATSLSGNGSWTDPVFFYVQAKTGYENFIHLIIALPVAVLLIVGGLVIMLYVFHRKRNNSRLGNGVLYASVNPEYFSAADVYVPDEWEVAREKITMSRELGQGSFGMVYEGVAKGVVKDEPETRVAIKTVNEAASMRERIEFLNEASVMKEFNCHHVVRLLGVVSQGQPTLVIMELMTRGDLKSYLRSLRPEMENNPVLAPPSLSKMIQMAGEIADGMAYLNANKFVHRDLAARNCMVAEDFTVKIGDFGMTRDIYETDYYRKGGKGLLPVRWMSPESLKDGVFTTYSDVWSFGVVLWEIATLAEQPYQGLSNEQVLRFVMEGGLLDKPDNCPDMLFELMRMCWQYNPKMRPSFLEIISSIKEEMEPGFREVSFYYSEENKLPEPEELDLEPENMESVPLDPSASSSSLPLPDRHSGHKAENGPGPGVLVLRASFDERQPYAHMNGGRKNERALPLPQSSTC
- Assay procedure: IGF-1R cellular autophosphorylation (DELFIA)
- Particulars: IGF-1 stimulated
Can you tell me IC50 for the items I'm about to list?

Worked cases, IC50 given:
[[record]]
smiles_code = "CCCN1CCC(c2ccc(Nc3nccc(-c4c(-c5ccc(OC)c(C(=O)Nc6c(F)cccc6F)c5)nc5ccccn45)n3)c(OCC)c2)CC1"
endpoint = "IC50"
obs_value = "< 100 nM"

[[record]]
smiles_code = "COc1cc(N2CCC(N3CCN(CCS(C)(=O)=O)CC3)CC2)ccc1Nc1nccc(-c2c(-c3cccc(C(=O)Nc4c(F)cccc4F)c3)nc3c(F)cccn23)n1"
endpoint = "IC50"
obs_value = "< 100 nM"

[[record]]
smiles_code = "CCCN1CCN(c2ccc(Nc3nccc(-c4c(-c5ccc(OCC)c(C(=O)Nc6c(F)cccc6F)c5)nc5ccccn45)n3)c(OCC)c2)CC1"
endpoint = "IC50"
obs_value = "< 100 nM"

[[record]]
smiles_code = "COc1ccc(-c2nc3ccccn3c2-c2ccnc(Nc3cccc(CN4CCN(C)CC4)c3C)n2)cc1C(=O)Nc1c(F)cccc1F"
endpoint = "IC50"
obs_value = "100 to 500 nM"

[[record]]
smiles_code = "COc1cc(N2CCC(N3CCN(S(C)(=O)=O)CC3)CC2)ccc1Nc1nccc(-c2c(-c3cccc(C(=O)Nc4c(F)cccc4F)c3)nc3c(C)cccn23)n1"
endpoint = "IC50"
obs_value = "100 to 500 nM"


Form field IC50, entry `COc1cc(N2CCC(N3CCC(CCS(C)(=O)=O)CC3)CC2)ccc1Nc1nccc(-c2c(-c3cccc(C(=O)Nc4c(F)cccc4F)c3)nc3ccccn23)n1` : < 100 nM

###

- Test system: IR (NIH-3T3 cells over expressing human IGF-1R or IR) (Homo sapiens)
- Assay procedure: IR cellular autophosphorylation (DELFIA)
- Particulars: NIH-3T3 cells over expressing IR, insulin stimulated
pIC50: −log10 of the molar value.
Endpoint: pIC50

[[record]]
compound = "COc1cc(N2CCC(N3CCN(CCS(C)(=O)=O)CC3)CC2)ccc1Nc1nccc(-c2c(-c3cccc(C(=O)Nc4c(F)cccc4F)c3)nc3ccccn23)n1 [Example 59]"
obs_value = "> 7.00"

[[record]]
compound = "COc1cc(N2CCC(N3CCCCC3)CC2)ccc1Nc1nccc(-c2c(-c3ccc(OC)c(C(=O)Nc4c(F)cccc4F)c3)nc3ccccn23)n1 [Example 23]"
obs_value = "> 7.00"


For each of the compounds below, state pIC50.
1. COc1cc(N2CCN(C(C)C)CC2)ccc1Nc1nccc(-c2c(-c3ccc(OC)c(C(=O)Nc4c(F)cccc4F)c3)nc3ccccn23)n1 [Example 176]
2. COc1cc(N2CCC(C3CCN(CCS(C)(=O)=O)CC3)CC2)ccc1Nc1nccc(-c2c(-c3ccc(OC)c(C(=O)Nc4c(F)cccc4F)c3)nc3ccccn23)n1 [Example 98]
3. CCOc1cc(CCN2CCN(C)CC2)ccc1Nc1nccc(-c2c(-c3ccc(OC)c(C(=O)Nc4c(F)cccc4F)c3)nc3ccccn23)n1 [Example 146]
4. O=C(Nc1c(F)cccc1F)c1cccc(-c2nc3ccccn3c2-c2ccnc(Nc3ccc(N4CCC(N5CCCCC5)CC4)cc3)n2)c1 [Example 82]

["> 7.00", "> 7.00", "< 6.30", "6.30 to 7.00"]

###

- Test system: IR (NIH-3T3 cells over expressing human IGF-1R or IR) (Homo sapiens, UniProt P06213)
- Sequence (P06213 28-1382): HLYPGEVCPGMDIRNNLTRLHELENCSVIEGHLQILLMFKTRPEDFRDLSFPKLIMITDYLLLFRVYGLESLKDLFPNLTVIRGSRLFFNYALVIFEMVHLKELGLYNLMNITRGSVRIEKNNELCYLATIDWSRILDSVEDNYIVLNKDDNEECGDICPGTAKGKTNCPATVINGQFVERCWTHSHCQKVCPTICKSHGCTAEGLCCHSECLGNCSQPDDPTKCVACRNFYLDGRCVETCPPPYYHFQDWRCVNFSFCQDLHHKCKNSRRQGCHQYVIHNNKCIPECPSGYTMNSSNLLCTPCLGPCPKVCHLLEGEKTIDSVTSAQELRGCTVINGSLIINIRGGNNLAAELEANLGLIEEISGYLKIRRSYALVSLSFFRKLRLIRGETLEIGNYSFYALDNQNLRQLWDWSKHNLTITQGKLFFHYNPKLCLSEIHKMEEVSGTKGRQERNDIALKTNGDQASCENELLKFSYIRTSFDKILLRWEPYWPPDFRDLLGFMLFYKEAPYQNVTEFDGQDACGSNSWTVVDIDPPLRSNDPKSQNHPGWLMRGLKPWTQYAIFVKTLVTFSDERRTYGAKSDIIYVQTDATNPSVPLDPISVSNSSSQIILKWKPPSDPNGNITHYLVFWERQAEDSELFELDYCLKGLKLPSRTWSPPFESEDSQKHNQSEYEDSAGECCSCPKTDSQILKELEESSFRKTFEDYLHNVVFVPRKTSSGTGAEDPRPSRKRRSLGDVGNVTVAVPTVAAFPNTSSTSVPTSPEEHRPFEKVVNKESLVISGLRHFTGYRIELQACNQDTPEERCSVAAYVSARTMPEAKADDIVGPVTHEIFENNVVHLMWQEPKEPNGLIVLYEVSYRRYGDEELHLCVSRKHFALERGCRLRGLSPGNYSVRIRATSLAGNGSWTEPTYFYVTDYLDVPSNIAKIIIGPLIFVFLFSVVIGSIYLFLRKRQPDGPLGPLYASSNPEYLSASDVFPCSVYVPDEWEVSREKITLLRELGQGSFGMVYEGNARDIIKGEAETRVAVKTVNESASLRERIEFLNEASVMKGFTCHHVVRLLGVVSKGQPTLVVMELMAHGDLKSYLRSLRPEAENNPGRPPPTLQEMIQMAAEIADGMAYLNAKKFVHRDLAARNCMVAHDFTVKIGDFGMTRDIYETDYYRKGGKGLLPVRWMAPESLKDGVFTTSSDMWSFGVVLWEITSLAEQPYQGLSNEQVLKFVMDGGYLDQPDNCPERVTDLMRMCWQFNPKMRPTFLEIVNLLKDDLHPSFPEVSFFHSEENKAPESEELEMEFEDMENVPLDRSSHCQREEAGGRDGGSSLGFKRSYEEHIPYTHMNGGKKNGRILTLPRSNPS
- Assay procedure: IR cellular autophosphorylation (DELFIA)
- Particulars: NIH-3T3 cells over expressing IR, insulin stimulated
pIC50: −log10 of the molar value.
Endpoint: pIC50

Solved cases (5 shown):
[[record]]
smiles_code = "CCCN1CCC(c2ccc(Nc3nccc(-c4c(-c5ccc(OC)c(C(=O)Nc6c(F)cccc6F)c5)nc5ccccn45)n3)c(OCC)c2)CC1"
obs_value = "> 7.00"

[[record]]
smiles_code = "CCOc1ccc(-c2nc3ccccn3c2-c2ccnc(Nc3ccc(N4CCC(N5CCC(CCS(C)(=O)=O)CC5)CC4)cc3OC)n2)cc1C(=O)Nc1c(F)cccc1F"
obs_value = "> 7.00"

[[record]]
smiles_code = "CCOc1cc(N2CCC(N3CCN(S(C)(=O)=O)CC3)CC2)ccc1Nc1nccc(-c2c(-c3ccc(OC)c(C(=O)Nc4c(F)cccc4F)c3)nc3ccccn23)n1"
obs_value = "> 7.00"

[[record]]
smiles_code = "COc1cc(C2CCN(CC(C)C)CC2)ccc1Nc1nccc(-c2c(-c3cccc(C(=O)Nc4c(F)cccc4F)c3)nc3ccccn23)n1"
obs_value = "> 7.00"

[[record]]
smiles_code = "COc1cc(CCCN2CCN(C)CC2)ccc1Nc1nccc(-c2c(-c3cccc(C(=O)Nc4c(F)cccc4F)c3)nc3ccccn23)n1"
obs_value = "6.30 to 7.00"


Consider the record given below.
The measured pIC50 associated with `COc1cc(C2CCN(CCS(C)(=O)=O)CC2)ccc1Nc1nccc(-c2c(-c3cccc(C(=O)Nc4c(F)cccc4F)c3)nc3ccccn23)n1` reads > 7.00
